# test target: hα4 and β1 integrins (Homo sapiens, UniProt P05556+P13612)
# Sequence (P13612 34-1032): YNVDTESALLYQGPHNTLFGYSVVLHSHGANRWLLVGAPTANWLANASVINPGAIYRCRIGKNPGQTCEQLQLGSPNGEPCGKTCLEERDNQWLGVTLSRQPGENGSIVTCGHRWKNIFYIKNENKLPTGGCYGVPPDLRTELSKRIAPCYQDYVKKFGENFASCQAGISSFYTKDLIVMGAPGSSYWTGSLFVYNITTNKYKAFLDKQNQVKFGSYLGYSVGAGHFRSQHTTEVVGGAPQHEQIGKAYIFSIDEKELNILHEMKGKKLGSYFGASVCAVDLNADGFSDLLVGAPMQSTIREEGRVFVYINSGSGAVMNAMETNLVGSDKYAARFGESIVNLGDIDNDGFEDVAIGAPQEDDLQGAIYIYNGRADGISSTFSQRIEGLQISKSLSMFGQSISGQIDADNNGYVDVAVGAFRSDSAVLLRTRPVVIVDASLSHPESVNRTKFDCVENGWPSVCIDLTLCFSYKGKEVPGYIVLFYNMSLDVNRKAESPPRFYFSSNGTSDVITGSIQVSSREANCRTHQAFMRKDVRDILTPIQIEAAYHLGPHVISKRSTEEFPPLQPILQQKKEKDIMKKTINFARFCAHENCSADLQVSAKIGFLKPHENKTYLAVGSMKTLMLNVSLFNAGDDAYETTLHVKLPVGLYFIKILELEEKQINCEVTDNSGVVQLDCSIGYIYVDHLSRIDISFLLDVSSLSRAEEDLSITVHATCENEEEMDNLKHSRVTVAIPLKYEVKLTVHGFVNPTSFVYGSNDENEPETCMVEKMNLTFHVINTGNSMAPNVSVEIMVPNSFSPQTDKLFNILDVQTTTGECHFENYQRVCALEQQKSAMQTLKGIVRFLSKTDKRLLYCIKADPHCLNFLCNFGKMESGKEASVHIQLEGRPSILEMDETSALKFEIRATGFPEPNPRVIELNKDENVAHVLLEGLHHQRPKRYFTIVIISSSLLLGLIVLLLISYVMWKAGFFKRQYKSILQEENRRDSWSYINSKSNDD
# Sequence (P05556 21-798): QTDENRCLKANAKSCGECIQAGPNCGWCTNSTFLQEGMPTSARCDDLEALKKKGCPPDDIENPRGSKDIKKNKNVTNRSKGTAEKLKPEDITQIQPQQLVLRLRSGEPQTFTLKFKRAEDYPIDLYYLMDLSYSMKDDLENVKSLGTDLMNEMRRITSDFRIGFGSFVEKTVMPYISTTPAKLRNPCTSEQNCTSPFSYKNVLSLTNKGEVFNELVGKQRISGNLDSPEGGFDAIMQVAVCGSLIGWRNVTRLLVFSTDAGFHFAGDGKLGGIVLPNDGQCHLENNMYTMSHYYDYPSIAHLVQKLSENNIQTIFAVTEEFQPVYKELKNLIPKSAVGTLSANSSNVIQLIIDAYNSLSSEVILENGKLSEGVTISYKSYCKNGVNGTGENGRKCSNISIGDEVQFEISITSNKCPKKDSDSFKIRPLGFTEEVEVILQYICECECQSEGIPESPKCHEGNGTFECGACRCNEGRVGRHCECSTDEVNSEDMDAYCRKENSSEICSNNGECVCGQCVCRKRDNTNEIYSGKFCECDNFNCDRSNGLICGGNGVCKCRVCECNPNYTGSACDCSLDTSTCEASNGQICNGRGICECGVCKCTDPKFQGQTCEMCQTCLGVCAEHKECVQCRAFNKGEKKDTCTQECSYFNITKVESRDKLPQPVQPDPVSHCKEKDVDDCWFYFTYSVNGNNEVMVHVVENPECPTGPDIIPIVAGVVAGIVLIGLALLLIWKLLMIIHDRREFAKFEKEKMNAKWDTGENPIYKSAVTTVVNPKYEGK
# test summary: In vitro inhibition of binding between CHO cells expressing hα4 and β1 integrins and Eu3+-hVCAM-1 D1D7-IgG
# stated conditions: CHO cells expressing hα4 and β1 integrins; Eu3+-hVCAM-1 D1D7-IgG ligand; without HSA
metric name: pKi
Give only the number. pKi is defined as minus log10 of concentration in molar units.

Exam item: Endpoint output: pKi of "COC1CN([C@H]2C[C@@H](CO[C@H]3CC[C@H](C(=O)O)CC3)N(C(=O)Cc3cc(Cl)c(NC(=O)c4cn(C)c5ccccc45)cc3F)C2)C1" . Value?
Marked response: 8.72

Exam item: May I ask what pKi has been recorded for "CCO[C@H]1[C@H](N2CCCCC2)CN(C(=O)Cc2cc(Cl)c(NC(=O)c3cn(C)c4ccccc34)cc2F)[C@@H]1CO[C@H]1CC[C@H](C(=O)O)CC1" ?
Marked response: 8.80

Exam item: pKi lookup needed for "CO[C@H]1CN([C@H]2C[C@@H](CO[C@H]3CC[C@H](C(=O)O)CC3)N(C(=O)Cc3cc(Cl)c(NC(=O)c4cn(C)c5ccccc45)cc3Cl)C2)C[C@@H]1OC" , thanks.
Marked response: 8.24

---

Kindly state pKi for each of the entries shown.
# test target: hα4 and β1 integrins (Homo sapiens, UniProt P05556+P13612)
# test summary: In vitro inhibition of binding between CHO cells expressing hα4 and β1 integrins and Eu3+-hVCAM-1 D1D7-IgG
# stated conditions: CHO cells expressing hα4 and β1 integrins; Eu3+-hVCAM-1 D1D7-IgG ligand; without HSA
The quantity pKi is defined as the negative base-10 logarithm of the molar concentration.

Exam item: Find pKi (hα4 and β1 integrins (Homo sapiens, UniProt P05556+P13612)) for the entry C[C@@H]1CN([C@H]2C[C@@H](CO[C@H]3CC[C@H](C(=O)O)CC3)N(C(=O)Cc3cc(Cl)c(NC(=O)c4cn(C)c5ccccc45)cc3F)C2)C[C@H](C)N1CCF [Example 147]
Marked response: 8.49

Exam item: Give recorded pKi with hα4 and β1 integrins (Homo sapiens, UniProt P05556+P13612) for the following molecule: Cn1cc(C(=O)Nc2cc(Cl)c(CC(=O)N3C[C@@H](N4CCN(CC5CC5)CC4)C[C@H]3CO[C@H]3CC[C@H](C(=O)O)CC3)cc2Cl)c2ccccc21 [Example 115]
Marked response: 8.38

Exam item: API: value(readout= pKi, system= hα4 and β1 integrins (Homo sapiens, UniProt P05556+P13612), query= CC1CN([C@H]2C[C@@H](CO[C@H]3CC[C@H](C(=O)O)CC3)N(C(=O)Cc3cc(Cl)c(NC(=O)c4coc5ccccc45)cc3F)C2)C1 [Example 11] )
Marked response: 8.46

---

# test target: hα4 and β1 integrins (Homo sapiens, UniProt P05556+P13612)
# test summary: In vitro inhibition of binding between CHO cells expressing hα4 and β1 integrins and Eu3+-hVCAM-1 D1D7-IgG
# stated conditions: in the presence of 3% human serum albumin (HSA final concentration 3%)
metric name: IC50 (nM)
Answer in nM, number only, no unit symbol.

Exam item: Returns the measured IC50 for the input compound. Input: "O=C(Nc1cc(F)c(CC(=O)N2C[C@@H](N3CCSCC3)C[C@H]2CO[C@H]2CC[C@H](C(=O)O)CC2)cc1Cl)c1coc2ccccc12"
Marked response: 13

Exam item: Query (compound): "C[C@@H]1CN([C@H]2C[C@@H](CO[C@H]3CC[C@H](C(=O)O)CC3)N(C(=O)Cc3ccc(NC(=O)c4nn(C)c5ccccc45)c(Cl)c3)C2)C[C@H](C)O1" ; field requested: IC50
Marked response: 9

Exam item: I am curious: what IC50 value has been reported for "CC1(C)O[C@H]2CN([C@H]3C[C@@H](CO[C@H]4CC[C@H](C(=O)O)CC4)N(C(=O)Cc4cc(Cl)c(NC(=O)c5csc6ccccc56)cc4Cl)C3)C[C@H]2O1" ?
Marked response: 12

---

# test summary: Test for pharmacokinetics and oral absorbability in monkeys
# Assay type: in vivo
# stated conditions: orally 0.5 mg/kg, single agent
Classify as follows. Reported Cltot (mL/min/kg): apparent plasma clearance greater than or equal to 0.8 mL/min/kg: 1. Reported Cltot (mL/min/kg): apparent plasma clearance below: 0.

Exam item: Evaluate "CO[C@H]1CN([C@H]2C[C@@H](CO[C@H]3CC[C@H](C(=O)O)CC3)N(C(=O)Cc3cc(Cl)c(NC(=O)c4csc5ccccc45)cc3Cl)C2)C[C@H]1OC" : Cltot (mL/min/kg): apparent plasma clearance at minimum 0.8 mL/min/kg?
Marked response: 1

Exam item: Say whether COC1CN([C@H]2C[C@@H](CO[C@H]3CC[C@H](C(=O)O)CC3)N(C(=O)Cc3cc(Cl)c(NC(=O)c4csc5ccccc45)cc3F)C2)C1 (relative stereo) shows Cltot (mL/min/kg): apparent plasma clearance of 0.8 mL/min/kg or more.
Marked response: 0

Exam item: In plain terms: is recorded Cltot (mL/min/kg): apparent plasma clearance at least 0.8 mL/min/kg for COC1CN([C@H]2C[C@@H](CO[C@H]3CC[C@H](C(=O)O)CC3)N(C(=O)Cc3cc(Cl)c(NC(=O)c4cn(C)c5ccccc45)cc3Cl)C2)C1 (relative stereo) ?
Marked response: 0

Exam item: Record "Cn1cc(C(=O)Nc2cc(Cl)c(CC(=O)N3C[C@@H](N4CCN(C5CC5)CC4)C[C@H]3CO[C@H]3CC[C@H](C(=O)O)CC3)cc2Cl)c2ccccc21" ; criterion: Cltot (mL/min/kg): apparent plasma clearance no lower than 0.8 mL/min/kg. Met?
Marked response: 1

Exam item: Threshold query (Cltot (mL/min/kg): apparent plasma clearance >= 0.8 mL/min/kg) on "C[C@@H]1CN([C@H]2C[C@@H](CO[C@H]3CC[C@H](C(=O)O)CC3)N(C(=O)Cc3cc(Cl)c(NC(=O)c4coc5ccccc45)cc3Cl)C2)C[C@H](C)O1"
Marked response: 0

---

# test target: hα4 and β1 integrins (Homo sapiens, UniProt P05556+P13612)
# test summary: In vitro inhibition of binding between CHO cells expressing hα4 and β1 integrins and Eu3+-hVCAM-1 D1D7-IgG
# stated conditions: CHO cells expressing hα4 and β1 integrins; Eu3+-hVCAM-1 D1D7-IgG ligand; without HSA
Consider the following compounds; for each one, report its pKi.
The quantity pKi is defined as the negative base-10 logarithm of the molar concentration.

Exam item: Query the reported pKi for hα4 and β1 integrins (Homo sapiens, UniProt P05556+P13612); item: "C[C@@H]1COC[C@H](C)N1[C@H]1C[C@@H](CO[C@H]2CC[C@H](C(=O)O)CC2)N(C(=O)Cc2cc(Cl)c(NC(=O)c3cn(C)c4ccccc34)cc2Cl)C1"
Marked response: 8.44

Exam item: Given the entry "Cn1cc(C(=O)Nc2cc(Cl)c(CC(=O)N3C[C@@H](N4CCN(CC(F)F)CC4)C[C@H]3CO[C@H]3CC[C@H](C(=O)O)CC3)cc2Cl)c2ccccc21" , what pKi was observed with hα4 and β1 integrins (Homo sapiens, UniProt P05556+P13612)?
Marked response: 8.42

Exam item: Param readout= pKi; system= hα4 and β1 integrins (Homo sapiens, UniProt P05556+P13612); entry= "Cn1cc(C(=O)Nc2cc(F)c(CC(=O)N3C[C@@H](N4CCN(C5(C)CC5)CC4)C[C@H]3CO[C@H]3CC[C@H](C(=O)O)CC3)cc2Cl)c2ccccc21" ; returns value.
Marked response: 8.20

---

# test target: hα4 and β1 integrins (Homo sapiens, UniProt P05556+P13612)
# Construct: expressed in transfected cells; host or cells: CHO cells
# test summary: In vitro inhibition of binding between CHO cells expressing hα4 and β1 integrins and Eu3+-hVCAM-1 D1D7-IgG
# stated conditions: CHO cells expressing hα4 and β1 integrins; Eu3+-hVCAM-1 D1D7-IgG ligand; without HSA
For each record, write down the corresponding pKi.
Interpret pKi as the negative base-10 log of the concentration measured in mol/L.

Exam item: hα4 and β1 integrins (Homo sapiens, UniProt P05556+P13612) / pKi / "CO[C@H]1CN([C@H]2C[C@@H](CO[C@H]3CC[C@H](C(=O)O)CC3)N(C(=O)Cc3cc(Cl)c(NC(=O)c4cn(C)c5ccccc45)cc3F)C2)C[C@H]1OC" : value?
Marked response: 8.59

Exam item: Recall the recorded pKi for "O=C(Nc1cc(F)c(CC(=O)N2C[C@@H](N3CC(CN4CCOCC4)C3)C[C@H]2CO[C@H]2CC[C@H](C(=O)O)CC2)cc1Cl)c1coc2ccccc12" with hα4 and β1 integrins (Homo sapiens, UniProt P05556+P13612) and state it.
Marked response: 8.34

Exam item: Recorded pKi for "O=C(Nc1ccc(CC(=O)N2C[C@@H](N3CCN(CC(F)(F)F)CC3)C[C@H]2CO[C@H]2CC[C@H](C(=O)O)CC2)cc1Cl)c1csc2ccccc12" with hα4 and β1 integrins (Homo sapiens, UniProt P05556+P13612), please?
Marked response: 8.92

Exam item: Please provide the recorded pKi for "CO[C@H]1CN([C@H]2C[C@@H](CO[C@H]3CC[C@H](C(=O)O)CC3)N(C(=O)Cc3cc(Cl)c(NC(=O)c4csc5ccccc45)cc3F)C2)C[C@H]1OC" , tested on hα4 and β1 integrins (Homo sapiens, UniProt P05556+P13612).
Marked response: 8.85

Exam item: // fetch hα4 and β1 integrins (Homo sapiens, UniProt P05556+P13612) pKi for "O=C(Nc1cc(F)c(CC(=O)N2C[C@@H](N3CCCCC3)C[C@H]2CO[C@H]2CC[C@H](C(=O)O)CC2)cc1Cl)c1csc2ccccc12"
Marked response: 9.03

Exam item: Give hα4 and β1 integrins (Homo sapiens, UniProt P05556+P13612) pKi for "CC(C)N1CCN([C@H]2C[C@@H](CO[C@H]3CC[C@H](C(=O)O)CC3)N(C(=O)Cc3cc(Cl)c(NC(=O)c4cn(C)c5ccccc45)cc3Cl)C2)CC1"
Marked response: 8.55

Exam item: Could you share what pKi was measured for "O=C(Nc1cc(F)c(CC(=O)N2C[C@@H](N3CCCOCC3)C[C@H]2CO[C@H]2CC[C@H](C(=O)O)CC2)cc1Cl)c1coc2ccccc12" , tested on hα4 and β1 integrins (Homo sapiens, UniProt P05556+P13612)?
Marked response: 8.70

Exam item: What value of pKi on hα4 and β1 integrins (Homo sapiens, UniProt P05556+P13612) does "C[C@@H]1CN([C@H]2C[C@@H](CO[C@H]3CC[C@H](C(=O)O)CC3)N(C(=O)Cc3cc(Cl)c(NC(=O)c4csc5ccccc45)cc3F)C2)C[C@H](C)O1" have?
Marked response: 9.13

Exam item: pKi of "O=C(Nc1cc(Cl)c(CC(=O)N2C[C@@H](N3CCCOCC3)C[C@H]2CO[C@H]2CC[C@H](C(=O)O)CC2)cc1Cl)c1csc2ccccc12" on hα4 and β1 integrins (Homo sapiens, UniProt P05556+P13612)?
Marked response: 8.77

Exam item: So what pKi did "COC1CN([C@H]2C[C@@H](CO[C@H]3CC[C@H](C(=O)O)CC3)N(C(=O)Cc3cc(Cl)c(NC(=O)c4coc5ccccc45)cc3Cl)C2)C1" get with hα4 and β1 integrins (Homo sapiens, UniProt P05556+P13612)?
Marked response: 8.23

Exam item: Param readout = pKi; param system = hα4 and β1 integrins (Homo sapiens, UniProt P05556+P13612); param query = "C[C@@H]1CN([C@H]2C[C@@H](CO[C@H]3CC[C@H](C(=O)O)CC3)N(C(=O)Cc3ccc(NC(=O)c4csc5ccccc45)c(Cl)c3)C2)C[C@H](C)O1" ; response: value
Marked response: 8.92
